The measured values listed here are drawn from the supplement of paper PMC10724198.

System: Saccharomyces cerevisiae
Test: protein stability index of tFT-peptide fusion (C-terminal peptide) (PSI (0-1 scale)); higher = more stable (slower turnover)
Conditions: genetic background: wild type; temperature: 30 C
Recorded protein stability index, one value per entry.
I only need the number, thanks.

Problem: Look up protein stability index for this sequence: DCLEGMLELEKL [DSS1 C-terminal 12 aa]
Solution: 0.677

Problem: Can you share its protein stability index? I mean this sequence: VTGFKDEVLETV [RPS1A C-terminal 12 aa]
Solution: 0.682

Problem: What does the record list as protein stability index for QKAQDVDVSMQD [RPN13 C-terminal 12 aa] ?
Solution: 0.654

----------
System: Saccharomyces cerevisiae
Assay: protein stability index of tFT-peptide fusion (C-terminal peptide) (PSI (0-1 scale)); higher = more stable (slower turnover)
Conditions: genetic background: wild type; temperature: 30 C
Parameter: protein stability index. Scope: all listed entries.
Give the figure only, with no unit attached.

Reference set (10 entries):
[[record]]
biosequence = "LSATWLKAIVYW"
quantity = "protein stability index"
resultvalue = 0.578

[[record]]
biosequence = "PPHPSPPHPSSA"
quantity = "protein stability index"
resultvalue = 0.752

[[record]]
biosequence = "PCVCFIILGMLS"
quantity = "protein stability index"
resultvalue = 0.449

[[record]]
biosequence = "PPATPTNPPVSP"
quantity = "protein stability index"
resultvalue = 0.687

[[record]]
biosequence = "LSRLLVYSRGIV"
quantity = "protein stability index"
resultvalue = 0.629

[[record]]
biosequence = "RNVALPSRKAQY"
quantity = "protein stability index"
resultvalue = 0.715

[[record]]
biosequence = "SGTGRINWEGFL"
quantity = "protein stability index"
resultvalue = 0.709

[[record]]
biosequence = "HNIQHKIHTKSR"
quantity = "protein stability index"
resultvalue = 0.761

[[record]]
biosequence = "LSQASPGSPRPA"
quantity = "protein stability index"
resultvalue = 0.698

[[record]]
biosequence = "PLVLSHRLPLPP"
quantity = "protein stability index"
resultvalue = 0.703


Problem: Can you look up protein stability index on Saccharomyces cerevisiae for "SHRSALLPFLPP" ?
Solution: 0.646

Problem: Write down the reported protein stability index of "EDVPRGWACRGR" , test system: Saccharomyces cerevisiae.
Solution: 0.747

Problem: Form entry - test system: Saccharomyces cerevisiae; read-out: protein stability index; sequence: "IAFLSRCWSFYL"
Solution: 0.49

Problem: # get_value(readout= protein stability index, system= Saccharomyces cerevisiae) for "APTPPPRISAWL"
Solution: 0.687

Problem: Request body: readout protein stability index, system Saccharomyces cerevisiae, query "GLMTISFPSFFR" . Return the value.
Solution: 0.704

Problem: Query the reported protein stability index for Saccharomyces cerevisiae; item: "RTRLPYVPAPAP"
Solution: 0.686

Problem: Hello, I am looking for reported protein stability index with Saccharomyces cerevisiae for "PALPPPGSPPPS" . Could you help?
Solution: 0.616

Problem: Can you look up protein stability index on Saccharomyces cerevisiae for "LLSRQEWMTGRS" ?
Solution: 0.673

Problem: Any idea what protein stability index came out for "LVPVWVGLRVLF" on Saccharomyces cerevisiae?
Solution: 0.421
